# TEST TARGET: T1, hHER3 ECD (human HER3 extracellular domain) (human, UniProt P21860 20-643)
# T1 construct: also called recombinant HER3-ECD
# EXPERIMENTAL PROTOCOL: ELISA, coated hHER3-ECD
Give EC50 for every item shown.
Give bare numbers, in nM.

See these solved cases before continuing.
BINDER	ENDPOINT UNIT	EC50
18E08 (VHH) VHH: EVQLVESGGGLVQPGGSLRLSCAASGTLFKINAMGWYRQAPGKQRELVALITSSDTTDYAESVEGRFTISRDNTWNAVYLQMNSLKPEDTAVYYCHSDHYSMGVPEKRVIMYGQGTQVTVSS	nM	4.7
21B02 (VHH) VHH: EVQLVESGGGLVQPGGSLRLSCAASGFTFDYYTIGWFRQAPGKEREGVSCISSRDGDSYYADSVKGRFTISRDNAKNTAYLQMNSLKPEDTAVYYCAASASDYGLGLELFHDEYNYWGQGTQVTVSS	nM	1.1
17B05 (VHH, also called HER3MS17B05; HER3MS017B05) VHH: EVQLVESGGGLVQPGGSLRLSCAASGSIGGLNAMAWYRQAPGKERELVAGIFGVGSTRYADSVKGRFTISRDIAKNTVFLQMNSLNSEDTAVYYCRMSSVTRGSSDYWGQGTQVTVSS	nM	0.63

I'm hoping you can list EC50 for every binder here, please.
1. 23F05 (VHH) VHH: EVQLVESGGGLVQAGGSLRLSCAASGFTFDGYAIGWFRQAPGKEREGVSCISGGDGRSYYADSVKGRFTVSSDNAKNTLYLEMNSLKPEDTAVYYCAVIWGPYCSDSYEYLYEYDYWGQGTQVTVSS
2. 18G11 (VHH, c-myc, His6-tagged form as expressed; also called HER3MS18G11; HER3MS018G11) VHH: EVQLVESGGGLVQPGGSLRLSCAASGTLFKINAMGWYRQAPGKRRELVALITSSDTTDYAESVEGRFTISRDNTWNAVYLQMNSLKPEDTAVYYCHSDHYSMGVPEKRVIMYGQGTQVTVSS
3. 18B05 (VHH) VHH: EVQLVESGGGLVQAGGSLRLSCAASGLTFGSAPMGWYRQAPGKERELVAYISGDERIWYGDSVKGRFTISRDTTKNTLYLQMNSLKPEDTAVYYCVSDVKVRHWGQGTQVTVSS
4. 17E08 (VHH) VHH: EVQLVESGGGLVQPGGSLRLSCSASGSIFGLNAMGWYRQTPGKERELVAGITSITRVGSTRYADSAKGRFTISGDYAKNTVYLQMNSLKPEDTGVYYCRMSIVKSGGADYWGQGTQVTVSS
5. 17C08 (VHH, also called 17C8) VHH: EVQLVESGGGLMQAGDSLRLSCAASGRAFSSYALGWFRRAPGKERECVAATDRLGDNTYFPDSVKGRFTISRDNAKNTLYLQMNNLKPEDTAVYYCAAGAVRYGVSTSPMNYNYWGQGTQVTVSS

[0.46, 0.72, 0.4, 1.02, 0.62]
